Molecular target: human Claudin18.2 (human)
Assay: cell-based or functional assay
Below is a list of entries, each paired with its recorded CDC EC50 value.
Measurement Label: CDC EC50 (µg/mL)

Binder	Reported Value
chimeric 412B6E4 (antibody, human IgG1, kappa, V domains shown, chimeric, human IgG1/kappa constant regions; also called 412B6E4-Chimeric) VH: DVQLVESGGGLVQPGGSRKLSCAASGFTFSSFGVHWVRQAPEKGLEWVAYISSGSSTIYYAHSVKGRFTISRDNPKNTLFLQMTSLGSEDTATYYCARFYYGNSFAYWGQGTLVTVSA VL: DIVMTQSPSSLTVTAGEKVTMSCKSSQSLLNSGNQKNYLTWYQQKPGQPPKMLIYWASTRESGVPDRFTGSGSGTDFTLTISSVQAEDLAVYYCQNAYTYPLTFGAGTRLELKR	0.105
chimeric 257G7B9 (antibody, human IgG1, kappa, V domains shown, chimeric, human IgG1/kappa constant regions) VH: QAYLQQSGAELVRSGASVKMSCKASGYTFTSHNLHWVKQTPGQGLEWIGYIYPGNGNTNYNQKFKGKATLTADTSSSTAYMQISSLTSEDSAVYFCTRDYYGNSFAYWGQGTLVTVSA VL: DIVMTQSPSSLTEKAGERVSMSCKSSQSLFNSGNQKNYLTWYQQKPGQPPKLLIYWASTRESGVPDRFTGSGSGTDFTLTISSVQAEDLAVYYCQNNYWFPFTFGAGTKLELKR	0.302
chimeric 252F1B10 (antibody, human IgG1, kappa, V domains shown, chimeric, human IgG1/kappa constant regions) VH: QAYLQQSGAELVRSGASVKMSCKASGYTFTSHNMHWVKQTPGQGLEWIGYIYPGNGGTNYNQKFKGKATLTADTSSSTAYMQINSLTSEDSAVYFCTRDYYGNSFAYWGQGTLVTVSA VL: DIVMTQSPSSLTEKAGERVSMSCKSSQSLFNSGNQKNYLTWYQQKPGQPPKLLIYWASTRESGVPDRFTGSGSGTDFTLTISSVQAEDLAVYYCQNDYRYPFTFGAGTKLELKR	0.288

Recorded values, source patent US20220073643A1.
